Assay Notes: recombinant UMI read abundance after kanamycin selection (control-corrected) (log10(CPM+1)); higher = more efficient recombination; extreme values may be limits of the assay; sequences stand for … in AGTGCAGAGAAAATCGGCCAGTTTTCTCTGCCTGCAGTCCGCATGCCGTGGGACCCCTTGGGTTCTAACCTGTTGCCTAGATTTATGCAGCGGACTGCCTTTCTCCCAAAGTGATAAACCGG…AGGTTGGTTTCACT; site = the 11-nt donor;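 further: IS621 bridge recombinase in Escherichia coli cells against a fixed T5 target plasmid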

| Sequence Chain | recombinant UMI read abundance (log10) |
| --- | --- |
| AAAGCGCCATGGACCGGTTTTCCCGGTAATCCGTATTTGTG (site CAAGCGCCTCA) | 0.017 |
| CCCTAGCCATGGACCGGTTTTCCCGGTAATCCGTATTTGGC (site CCCTAGCCTGT) | 0 |
| TCGTTCGCATGGACCGGTTTTCCCGGTAATCCGTATTTGCT (site TCGTTCGCTAG) | 0 |
| GGCCACCCATGGACCGGTTTTCCCGGTAATCCGTATTTGTG (site GGCCACCCTGA) | 0 |
| CCCCACACATGGACCGGTTTTCCCGGTAATCCGTATTTGAA (site CCCCACACTTT) | 0.557 |
